Target: Cytochrome P450 2D6 (Homo sapiens) (UniProt P10635)
Sequence (P10635 whole entry, looked up): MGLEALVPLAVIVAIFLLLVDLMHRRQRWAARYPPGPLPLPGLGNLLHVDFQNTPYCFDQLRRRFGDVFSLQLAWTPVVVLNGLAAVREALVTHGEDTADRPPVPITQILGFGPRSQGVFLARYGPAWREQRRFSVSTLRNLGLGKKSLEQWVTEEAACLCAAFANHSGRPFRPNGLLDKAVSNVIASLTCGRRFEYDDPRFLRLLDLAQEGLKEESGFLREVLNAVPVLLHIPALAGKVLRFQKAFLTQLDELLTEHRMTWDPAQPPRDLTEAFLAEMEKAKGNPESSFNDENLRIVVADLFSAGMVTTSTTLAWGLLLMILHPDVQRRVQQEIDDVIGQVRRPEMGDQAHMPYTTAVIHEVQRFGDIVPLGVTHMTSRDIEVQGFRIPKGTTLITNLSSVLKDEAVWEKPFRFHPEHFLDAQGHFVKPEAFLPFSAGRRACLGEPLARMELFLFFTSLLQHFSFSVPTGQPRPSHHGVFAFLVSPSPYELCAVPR
Assay: Cytochrome P450 Family 2 Subfamily D Member 6 (CYP2D6) small molecule antagonists: luciferase reporter qHTS assay (AID 1671196); also: nearly all actives have a fitted effect of over 50% in size
Conditions: P450-Glo CYP2D6 enzyme assay, luciferin luminescence, 1 h; series mostly up to 115 µM
Description: U.S. Tox21 Program National Center for Advancing Translational Sciences [NCATS] U.S. Environmental Protection Agency [EPA] National Institutes of Environmental Health Sciences [NIEHS] National Toxicology Program [NTP] U.S. Food and Drug Administration [FDA] […] The luciferin products formed are detected with a luciferin detection reagent, and the amount of light produced is proportional to CYP activity. […]
Results filed as inconclusive are left out. Active and inactive are the calls of the source. Calls follow the shape of the dose curve; as a rule, active = well fitted inhibition curve with a large enough effect in the repeat runs; inconclusive = weak or mixed curves; inactive = no such curve, though single readings can be large or run the other way.
Thanks in advance; please answer with one of these: true (1) (active), false (0) (inactive)

Use these answered entries as a reference point.
| Compound | Answer Label |
| --- | --- |
| ClCOCCl | false (0) |
| Cc1cccc2sc3nncn3c12 | true (1) |
| C[C@H]1CCCC(=O)CCC/C=C/c2cc(O)cc(O)c2C(=O)O1 | true (1) |

Each compound tested received a call. Report the one for `N[C@@H]1C[C@H]1c1ccccc1` .
true (1)

Each compound tested received a call. Report the one for `O=S1(=O)OCCO1` .
false (0)

Each compound tested received a call. Report the one for `CC#Cc1cc(C)nc(Nc2ccccc2)n1` .
false (0)

Each compound tested received a call. Report the one for `Cc1ccc(S(=O)(=O)N[C@@H](CCCCN)C(=O)CCl)cc1` .
true (1)

Each compound tested received a call. Report the one for `C=C(C)[C@H]1CN[C@H](C(=O)O)[C@H]1CC(=O)O` .
false (0)

Each compound tested received a call. Report the one for `C[C@]12C=CC(=O)C=C1CC[C@@H]1[C@@H]2CC[C@@]2(C)[C@H]1CC[C@]2(C)O` .
false (0)

---

Assay: qHTS assay to identify small molecule antagonists of the estrogen receptor alpha (ER-alpha) signaling pathway using the BG1 cell line in the presence of 0.1 nM 17-beta-estradiol - cell viability counter screen (AID 1259241); also: % is scaled to controls: 0 for no effect and ±100 for the full control effect; nearly all actives have a fitted effect of over 40% in size
Conditions: VM7Luc4E2 (BG1) viability, CellTiter-Fluor protease, 22 h, 0.1 nM estradiol agonist added; series mostly up to 92.4 µM
Results filed as inconclusive are left out. The source made the active and inactive calls. Calls follow the shape of the dose curve; as a rule, active = well fitted cell-killing curve with a large enough effect in the repeat runs; inconclusive = weak or mixed curves, or effect the other way; inactive = flat fitted curve, though single readings scatter.
Observation Type: activity change, negative = cytotoxicity

Please review the entries below; each comes with its answer.
| Sample Smiles | activity change, negative = cytotoxicity |
| --- | --- |
| Cc1ccc(-c2nc3ccc(C)cn3c2CC(=O)N(C)C)cc1 | inactive |
| O=C(Cl)c1ccccc1 | inactive |
| C[C@H](N)C(=O)c1ccccc1 | inactive |
| Clc1ccc(C(Cl)(Cl)Cl)cn1 | inactive |
| COc1ccc(CN2CCNCC2)c(OC)c1OC | inactive |
| CC(C)c1ccc(O)cc1 | inactive |

Turning now to a further compound:
Can you look up the measured activity change, negative = cytotoxicity of `O=C(O)C(F)(F)C(F)(F)C(F)(F)C(F)(F)C(F)(F)C(F)(F)F` for me?
inactive

---

Experiment: qHTS assay to identify small molecule antagonists of the thyroid receptor (TR) signaling pathway (AID 743065); also: nearly all actives have a fitted effect of over 55% in size
Settings: GH3.TRE-Luc, T3-stimulated luciferase inhibition, 23.5 h; series mostly up to 70.3 µM
Inconclusive results are not listed. Active and inactive are the calls of the source. Calls come from the whole dose curve; as a rule, active = well fitted inhibition curve with a large enough effect in the repeat runs; inconclusive = weak or mixed curves; inactive = no such curve, though single readings can be large or run the other way.
Thanks in advance; please answer with one of these: 1 (yes) for active, 0 (no) for inactive

Use these answered entries as a reference point.
| Compound | Answer Label |
| --- | --- |
| C(COCC1CO1)OCC1CO1 (configuration not stated) | 1 (yes) |
| CCCN1CCC[C@@H]2Cc3nc(N)ncc3C[C@H]21 | 0 (no) |
| ClCOCCl | 0 (no) |
| O=CCCl | 0 (no) |
| N[C@@H]1C[C@H]1c1ccccc1 | 0 (no) |
| BrCCc1ccccc1 | 0 (no) |
| CN=CNc1ccc(C)cc1C | 0 (no) |
| CCOP(=O)(CN(CCO)CCO)OCC | 0 (no) |
| NCC1(CC(=O)O)CCCCC1 | 0 (no) |
| C=C(C)[C@H]1CN[C@H](C(=O)O)[C@H]1CC(=O)O | 0 (no) |

Next compound, please.
Each compound tested received a call. Report the one for `C=CC(=O)OCCN(C)C` .
0 (no)

---

Target: Estrogen receptor (Homo sapiens) (UniProt P03372)
Sequence (P03372 whole entry, looked up): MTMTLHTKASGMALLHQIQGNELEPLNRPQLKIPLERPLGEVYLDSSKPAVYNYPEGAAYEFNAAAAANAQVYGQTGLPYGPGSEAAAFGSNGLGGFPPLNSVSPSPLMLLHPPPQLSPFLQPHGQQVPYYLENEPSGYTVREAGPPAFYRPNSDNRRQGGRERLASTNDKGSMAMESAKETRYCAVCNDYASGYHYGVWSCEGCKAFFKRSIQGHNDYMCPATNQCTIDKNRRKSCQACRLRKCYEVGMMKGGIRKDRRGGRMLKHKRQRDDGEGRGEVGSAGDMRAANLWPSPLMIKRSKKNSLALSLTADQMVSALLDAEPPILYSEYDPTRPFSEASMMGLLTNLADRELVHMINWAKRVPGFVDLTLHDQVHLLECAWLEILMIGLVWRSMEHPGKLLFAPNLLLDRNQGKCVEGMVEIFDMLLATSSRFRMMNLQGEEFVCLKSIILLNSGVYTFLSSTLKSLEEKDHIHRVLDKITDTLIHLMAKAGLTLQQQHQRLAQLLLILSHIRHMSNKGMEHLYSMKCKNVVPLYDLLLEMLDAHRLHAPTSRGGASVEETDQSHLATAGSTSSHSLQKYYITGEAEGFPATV
Experiment: qHTS assay to identify small molecule agonists of the estrogen receptor alpha (ER-alpha) signaling pathway using the BG1 cell line (AID 743079); also: % is scaled to controls: 0 for no effect and ±100 for the full control effect; nearly all actives have a fitted effect of over 20% in size
Settings: BG1Luc4E2 cells, ERE-luciferase agonist, 22 h; at 95 µM (top of the series)
Inconclusive results are not listed.
Observation Type: activation (%)
Numbers only, in %.

Please review the entries below; each comes with its answer.
| Molecule | Target System | Observation Type | Value Measured |
| --- | --- | --- | --- |
| O=C(Cl)C(Cl)(Cl)Cl | Estrogen receptor (Homo sapiens) (UniProt P03372) | activation | 9.01 |
| C[C@H](N)C(=O)c1ccccc1 | Estrogen receptor (Homo sapiens) (UniProt P03372) | activation | 4.39 |
| O=C(Cl)/C=C/C(=O)Cl | Estrogen receptor (Homo sapiens) (UniProt P03372) | activation | 5.56 |

Look at each molecule and report its activation.
1. BrCC1CO1 (stereo not drawn)
2. CCCCOC(C)=O
3. O=[N+]([O-])CCO
4. CCN[C@@H](C)Cc1ccccc1
5. COP(=O)(OC)O/C(C)=C/C(=O)N(C)C
6. N=C(N)[Se]

8.58
-9.13
-2.33
0.895
-7.62
-2.62

Look at each molecule and report its activation.
1. CCCCCCCC(=O)Cl
2. O=C(Cl)CCl
3. COc1cc(CC(C)N)cc(OC)c1OC (stereo not drawn)
4. CC(C)(C)C(=O)Cl
5. CS(=O)(=O)Cl
6. NNC(N)=O
7. COc1ccc(C=O)cc1O

-1.47
0.754
-7.73
-4.71
7.45
-3.44
10.8

Look at each molecule and report its activation.
1. O=C(Cl)c1ccccc1
2. CN(CCO)CCO

[1.6, -2.37]

---

Experiment: qHTS RealTime-Glo MT Cell Viability Assay in HEK293 cells - 16 hour (AID 1224872); also: top concentration of the series differs between compounds; % is scaled to controls: 0 for no effect and ±100 for the full control effect; nearly all actives have a fitted effect of over 50% in size
Conditions: RealTime-Glo luminescence; series mostly up to 76.8 µM
Results filed as inconclusive are left out. The source made the active and inactive calls. Calls follow the shape of the dose curve; as a rule, active = well fitted cell-killing curve with a large enough effect in the repeat runs; inconclusive = weak or mixed curves, or effect the other way; inactive = flat fitted curve, though single readings scatter.
Thanks in advance; please answer with one of these: t for active, f for inactive

Use these answered entries as a reference point.
| Compound | Answer Label |
| --- | --- |
| O=CCCl | f |
| C=C(Cl)CCl | f |
| CNC(=O)Oc1cc(C)c(N(C)C)c(C)c1 | f |
| COC1=CC(=O)O[C@@H](/C=C/c2ccccc2)C1 | f |
| CCCC(C)C1(CC)C(=O)N=C(S)NC1=O (stereo unspecified) | f |
| C#CC(C)(C)O | f |
| CCC(C(N)=O)N1CCCC1=O (stereo unspecified) | f |
| O=C(Cl)c1ccccc1 | f |

Each compound tested received a call. Report the one for `COC(=O)c1ccc(CBr)cc1` .
f

Each compound tested received a call. Report the one for `C=CCCC#N` .
f

---

Experiment: qHTS RealTime-Glo MT Cell Viability Assay in HEK293 cells - 24 hour (AID 1224886); also: nearly all actives have a fitted effect of over 50% in size
Details: RealTime-Glo luminescence; series mostly up to 76.8 µM
Inconclusive results are not listed. Active and inactive are the calls of the source. Calls come from the whole dose curve; as a rule, active = well fitted cell-killing curve with a large enough effect in the repeat runs; inconclusive = weak or mixed curves, or effect the other way; inactive = flat fitted curve, though single readings scatter.
Thanks in advance; please answer with one of these: active, inactive

Use these answered entries as a reference point.
| Sample Smiles | Answer Label |
| --- | --- |
| Cn1c(N)nc2c3cccnc3ccc21 | inactive |
| NCCOS(=O)(=O)O | inactive |
| CCN[C@@H](C)Cc1ccccc1 | inactive |
| C[C@H]1CCCC(=O)CCC/C=C/c2cc(O)cc(O)c2C(=O)O1 | active |
| C1CN2CCC1CC2 | inactive |

Each compound tested received a call. Report the one for `BrCCc1ccccc1` .
inactive

Each compound tested received a call. Report the one for `O=S1(=O)OCCO1` .
inactive

Each compound tested received a call. Report the one for `COc1cccc(C=O)c1` .
inactive

---

Experiment: qHTS assay to identify small molecule agonists of the AP-1 signaling pathway (AID 1159526); also: % is scaled to controls: 0 for no effect and ±100 for the full control effect
Conditions: ME-180 (cervical carcinoma) AP-1-bla reporter, beta-lactamase FRET ratio, 5 h; series mostly up to 76.8 µM
Records with an inconclusive call do not appear. Active and inactive are the calls of the source. Calls follow the shape of the full dose curve.
Observation Type: activation

Please review the entries below; each comes with its answer.
| Molecule | activation |
| --- | --- |
| CC(C)C(C)(N)C#N (centres undefined) | inactive |
| CCN1CCCC1CNC(=O)C(O)(c1ccccc1)c1ccccc1 (centres undefined) | inactive |
| CCCOc1nn(C(=O)NS(=O)(=O)c2ccccc2C(=O)OC)c(=O)n1C | inactive |
| O=C1CCCCC1Cl (centres undefined) | inactive |
| C[C@]12C=CC(=O)C=C1CC[C@@H]1[C@@H]2CC[C@@]2(C)[C@H]1CC[C@]2(C)O | inactive |
| CN(C)C1CCCCC1 | inactive |
| CCN[C@H](C)Cc1cccc(C(F)(F)F)c1 | inactive |
| O=C(Cl)CCl | inactive |

Look at each molecule and report its activation.
1. ClC(Cl)(Cl)Cl
2. Clc1ccc(C(Cl)(Cl)Cl)cn1
3. C=CCC1(C(C)CC)C(=O)NC(=O)NC1=O (centres undefined)
4. ClCCCCCCCl
5. BrCc1ccc(Br)cc1
6. COC(=O)[C@@H](N)CCCN/C(N)=N/[N+](=O)[O-]

["inactive", "inactive", "inactive", "inactive", "inactive", "inactive"]
